protocolSummary: Apparent elimination half life in monkey at 2 mg/kg, iv
Assay type: ADME, organism-based, Macaca mulatta
recordedConditions: rhesus monkey, in vivo, read-out: betat1/2(app) (converted)
metric: half-life (h)
# output: bare number, implied unit h

Which value of half-life has been reported for `CC(C)C[C@](C)(N)COc1ccc(-c2ccnc(C(F)F)c2)nc1C(F)F` in the records?
5.7

====

protocolSummary: Oral bioavailability in dog at 3 mg/kg
Type: ADME, organism-based, Canis lupus familiaris
recordedConditions: in vivo
metric: bioavailability (%)
# output: bare number, implied unit %

Which value of bioavailability has been reported for `CC(C)C[C@](C)(N)COc1ccc(-c2ccnc(C(F)F)c2)nc1C(F)F` in the records?
87

====

protocolSummary: Protein binding in rat plasma assessed as unbound fraction at 10 uM measured after 5 hrs by LC-MS/MS analysis
Type: ADME, cell-free
metric: fraction unbound at 5 h, 10 µM
Give your answer as a number; write no unit.

Cc1cc(-c2ccc(OC[C@@](C)(N)CC(C)C)c(C(F)F)c2)ccn1 = 0.031
Cc1cc(-c2ccc(OC[C@@](C)(N)CC(C)C)c(C(F)(F)F)c2)ccn1 = 0.026
CC(C)C[C@](C)(N)COc1ccc(-c2ccnc(C(F)F)c2)cc1C(F)F = 0.045

Which value of fraction unbound at 5 h, 10 µM has been reported for `CC(C)C[C@](C)(N)COc1ccc(-c2ccnc(C(F)F)c2)cc1C#N` in the records?
0.14

Check `CC(C)C[C@](C)(N)COc1ccc(-c2ccnc(C(F)F)c2)nc1C(F)F` too.
0.1

Check `CC(C)C[C@](C)(N)COc1ccc(-c2ccnc(C(F)F)c2)cc1C(F)(F)F` too.
0.004

====

Recorded measurements of Papp at 4 h, one per entry
protocolSummary: Permeability of compound at pH 5.5 measured after 4 hrs by PAMPA assay
Type: ADME
recordedConditions: read-out: permeability
# number then unit; no other words

Look over these answered cases.
CC(C)C[C@](C)(N)COc1ccc(-c2ccnc(C(F)F)c2)cc1C1CC1 = 78.4 ×10⁻⁶ cm/s
Cc1cc(-c2ccc(OC[C@@](C)(N)CC(C)C)c(C(F)(F)F)c2)ccn1 = 36 ×10⁻⁶ cm/s
CC(C)C[C@](C)(N)COc1ccc(-c2ccnc(C(F)F)c2)nc1C(F)F = 60 ×10⁻⁶ cm/s
CC(C)C[C@](C)(N)COc1ccc(-c2ccnc(C(F)F)c2)cc1C(F)(F)F = 33.9 ×10⁻⁶ cm/s
CC(C)C[C@](C)(N)COc1ccc(-c2ccnc(C(F)F)c2)cc1C(F)F = 99.9 ×10⁻⁶ cm/s

Which value of Papp at 4 h has been reported for `Cc1cc(-c2ccc(OC[C@@](C)(N)CC(C)C)c(C(F)F)c2)ccn1` in the records?
69.7 ×10⁻⁶ cm/s

Check `CC(C)C[C@](C)(N)COc1ccc(-c2ccnc(C(F)F)c2)cc1C#N` too.
68.1 ×10⁻⁶ cm/s

====

protocolSummary: Drug concentration in Sprague-Dawley rat spinal cord with CCI induced thermal hyperalgesia at 0.1 mg/kg, po measured at 5.75 hrs post dose
Assay type: ADME, organism-based
recordedConditions: read-out: Ct
metric: concentration at 5.75 h (nM)
# output: bare number, implied unit nM

Which value of concentration at 5.75 h has been reported for `CC(C)C[C@](C)(N)COc1ccc(-c2ccnc(C(F)F)c2)nc1C(F)F` in the records?
214

// data source = ChEMBL document CHEMBL5046296
